- measured-on: GlyT1 transporter (Homo sapiens)
- Construct: endogenously expressing the GlyT1 transporter; host or cells: SK-N-MC human neuroblastoma cells
- assay-name: GlyT1 assay: 3H-glycine uptake into SK-N-MC cells (Cytostar-T format)
- Format: cell-based
- cond: glycine uptake in human SK-N-MC cells endogenously expressing GlyT1; 500 nM glycine, 1% DMSO, signal recorded over 60 min
property-label: IC50 (nM)

Example cases with answers are listed next.
Param readout= IC50; system= GlyT1 transporter (Homo sapiens); entry= Cc1cnc(C23CC2CN(C(=O)c2cc(S(C)(=O)=O)ccc2O[C@@H](C)C(F)(F)F)C3)o1 (single isomer, unassigned) [Example 23] ; returns value.
181

Param readout= IC50; system= GlyT1 transporter (Homo sapiens); entry= CS(=O)(=O)c1ccc(O[C@@H]2CCOC2)c(C(=O)N2CC3CC3(c3noc(C(F)(F)F)n3)C2)c1 (single isomer, unassigned) [Example 139] ; returns value.
253

(P) C[C@H](Oc1ccc(S(C)(=O)=O)cc1C(=O)N1CC2CC2(C2=NCC(C(F)(F)F)O2)C1)C(F)(F)F (mixture of isomers)
(Q) C[C@H](Oc1ccc(S(C)(=O)=O)cc1C(=O)N1CC2CC2(c2noc(C3(C)CC3)n2)C1)C(F)(F)F (mixture of isomers)
(R) C[C@H](Oc1ccc(S(C)(=O)=O)cc1C(=O)N1CC2CC2(c2cccc(C(F)(F)F)n2)C1)C(F)(F)F (single isomer, unassigned) [Example 56]
(S) C[C@H](Oc1ccc(S(C)(=O)=O)cc1C(=O)N1CC2CC2(c2nccc(C(F)(F)F)n2)C1)C(F)(F)F (single isomer, unassigned) [Example 17]
(T) C[C@@H](Oc1ccc(S(C)(=O)=O)cc1C(=O)N1CC2CC2(c2nnc(C(F)(F)F)o2)C1)C(F)(F)F (single isomer, unassigned) [Example 123]
Arrange items by their IC50 values in increasing order. Order the labels as requested and list them.
Q, T, S, R, P

---

- measured-on: GlyT1 transporter (Homo sapiens)
- Construct: endogenously expressing the GlyT1 transporter
- assay-name: GlyT1 assay: 3H-glycine uptake into SK-N-MC cells (Cytostar-T format)
- cond: glycine uptake in human SK-N-MC cells endogenously expressing GlyT1; 500 nM glycine, 1% DMSO, signal recorded over 60 min
pIC50: −log10 of the molar value.
property-label: pIC50

Example cases with answers are listed next.
Field request: pIC50 | item: CC(C)Oc1ccc(S(C)(=O)=O)cc1C(=O)N1CC2CC2(c2nc(C3(C(F)(F)F)CC3)no2)C1 (racemic)
7.14

Field request: pIC50 | item: Cc1cnc(C23CC2CN(C(=O)c2cc(S(C)(=O)=O)ccc2O[C@@H](C)C(F)(F)F)C3)o1 (single isomer, unassigned) [Example 22]
8.30

Field request: pIC50 | item: C[C@H](Oc1ccc(S(C)(=O)=O)cc1C(=O)N1CC2CC2(c2noc(CC(F)(F)F)n2)C1)C(F)(F)F (mixture of isomers)
8.10

Field request: pIC50 | item: Cc1conc1C12CC1CN(C(=O)c1cc(S(C)(=O)=O)ccc1O[C@@H](C)C(F)(F)F)C2 (mixture of isomers)
8.00

(I) CC(C)Oc1ccc(S(C)(=O)=O)cc1C(=O)N1CC2CC2(c2nc(C(F)(F)F)co2)C1 (racemic) [Example 110]
(II) C[C@@H](Oc1ccc(S(C)(=O)=O)cc1C(=O)N1CC2CC2(c2noc(C3CC3)n2)C1)C(F)(F)F (single isomer, unassigned) [Example 45]
Given the listed records, identify the one among I and II with higher pIC50. Returns: label corresponding to the selected item.
II

---

- measured-on: GlyT1 transporter (Homo sapiens)
- Construct: endogenously expressing the GlyT1 transporter
- Sequence (P48067 1-706): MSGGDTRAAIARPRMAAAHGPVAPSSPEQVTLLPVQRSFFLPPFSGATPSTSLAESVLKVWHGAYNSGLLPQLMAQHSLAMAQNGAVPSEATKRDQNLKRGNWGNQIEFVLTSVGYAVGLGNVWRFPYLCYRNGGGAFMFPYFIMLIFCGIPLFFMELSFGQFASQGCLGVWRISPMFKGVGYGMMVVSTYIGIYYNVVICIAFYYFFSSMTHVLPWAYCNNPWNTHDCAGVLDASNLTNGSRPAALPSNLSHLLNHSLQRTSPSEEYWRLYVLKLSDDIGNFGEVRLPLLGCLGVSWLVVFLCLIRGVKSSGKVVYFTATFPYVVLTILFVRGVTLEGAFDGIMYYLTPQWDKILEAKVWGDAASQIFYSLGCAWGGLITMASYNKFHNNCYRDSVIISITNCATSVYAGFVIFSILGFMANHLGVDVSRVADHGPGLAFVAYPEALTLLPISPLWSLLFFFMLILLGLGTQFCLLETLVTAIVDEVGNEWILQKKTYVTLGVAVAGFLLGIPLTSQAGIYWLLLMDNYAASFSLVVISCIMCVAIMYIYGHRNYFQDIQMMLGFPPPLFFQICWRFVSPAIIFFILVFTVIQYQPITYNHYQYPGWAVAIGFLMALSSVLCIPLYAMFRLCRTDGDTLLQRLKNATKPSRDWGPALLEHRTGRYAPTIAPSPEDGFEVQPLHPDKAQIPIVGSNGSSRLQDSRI
- assay-name: GlyT1 assay: 3H-glycine uptake into SK-N-MC cells (Cytostar-T format)
- cond: glycine uptake in human SK-N-MC cells endogenously expressing GlyT1; 500 nM glycine, 1% DMSO, signal recorded over 60 min
property-label: IC50 (nM)

Example cases with answers are listed next.
Field request: IC50 | item: C[C@H](Oc1ccc(S(C)(=O)=O)cc1C(=O)N1CC2CC2(c2nc(C(F)(F)F)no2)C1)C(F)(F)F (single isomer, unassigned) [Example 84]
16

Field request: IC50 | item: Cc1nnc(C23CC2CN(C(=O)c2cc(S(C)(=O)=O)ccc2O[C@@H](C)C(F)(F)F)C3)o1 (mixture of isomers)
89

Field request: IC50 | item: C[C@H](Oc1ccc(S(C)(=O)=O)cc1C(=O)N1CC2CC2(c2csc(C(F)(F)F)n2)C1)C(F)(F)F (single isomer, unassigned) [Example 28]
1440

Field request: IC50 | item: C[C@@H](Oc1ccc(S(C)(=O)=O)cc1C(=O)N1CC2CC2(c2noc(C3(C)CC3)n2)C1)C(F)(F)F (mixture of isomers)
7

Field request: IC50 | item: C[C@H](Oc1ccc(C#N)cc1C(=O)N1CC2CC2(c2noc(C(F)(F)F)n2)C1)C(F)(F)F (single isomer, unassigned) [Example 90]
2250

Field request: IC50 | item: C[C@@H](Oc1ccc(S(C)(=O)=O)cc1C(=O)N1CC2CC2(c2csc(C(F)(F)F)n2)C1)C(F)(F)F (mixture of isomers) [Example 29]
11

Field request: IC50 | item: C[C@@H](Oc1ccc(S(C)(=O)=O)cc1C(=O)N1CC2CC2(c2noc(C(F)(F)F)n2)C1)C(F)(F)F (single isomer, unassigned) [Example 5]
1380

Field request: IC50 | item: C[C@H](Oc1ccc(S(C)(=O)=O)cc1C(=O)N1CC2CC2(c2cncc(C(F)(F)F)c2)C1)C(F)(F)F (mixture of isomers)
70

Field request: IC50 | item: C[C@@H](Oc1ccc(S(C)(=O)=O)cc1C(=O)N1CC2CC2(c2noc(C3(C(F)(F)F)CC3)n2)C1)C(F)(F)F (mixture of isomers) [Example 68]
7

Field request: IC50 | item: Cc1c(C23CC2CN(C(=O)c2cc(S(C)(=O)=O)ccc2O[C@@H](C)C(F)(F)F)C3)noc1C(F)(F)F (single isomer, unassigned) [Example 164]
28

(A) C[C@H](Oc1ccc(S(C)(=O)=O)cc1C(=O)N1CC2CC2(c2noc(C3(C(F)(F)F)CC3)n2)C1)C(F)(F)F (single isomer, unassigned) [Example 67]
(B) C[C@@H](Oc1ccc(S(C)(=O)=O)cc1C(=O)N1CC2CC2(c2nccc(C(F)(F)F)n2)C1)C(F)(F)F (mixture of isomers) [Example 72]
Which gives the smaller IC50 number: A or B ? Returns: label corresponding to the selected item.
B
(B: 17 nM, A: 100 nM)

(A) C[C@@H](Oc1ccc(S(C)(=O)=O)cc1C(=O)N1CC2CC2(c2csc(C(F)(F)F)n2)C1)C(F)(F)F (single isomer, unassigned) [Example 30]
(B) C[C@@H](Oc1ccc(S(C)(=O)=O)cc1C(=O)N1CC2CC2(c2nccc(C(F)(F)F)n2)C1)C(F)(F)F (single isomer, unassigned) [Example 18]
Given the listed records, identify the one among A and B with higher IC50. Returns: label corresponding to the selected item.
B

(1) C[C@H](Oc1ccc(S(C)(=O)=O)cc1C(=O)N1CC2CC2(c2nc(C3CC3)no2)C1)C(F)(F)F (single isomer, unassigned) [Example 143]
(2) C[C@H](Oc1ccc(S(C)(=O)=O)cc1C(=O)N1CC2CC2(c2cn3ccccc3n2)C1)C(F)(F)F (mixture of isomers)
(3) Cc1nc(C23CC2CN(C(=O)c2cc(S(C)(=O)=O)ccc2O[C@H](C)C(F)(F)F)C3)no1 (mixture of isomers) [Example 101]
(4) C[C@@H](Oc1ccc(S(C)(=O)=O)cc1C(=O)N1CC2CC2(c2nnc(C(F)(F)F)o2)C1)C(F)(F)F (single isomer, unassigned) [Example 124]
Arrange items by their IC50 values in increasing order. Order the labels as requested and list them.
1, 3, 4, 2
(1: 7 nM, 3: 15 nM, 4: 503 nM, 2: 911 nM)

(I) C[C@H](Oc1ccc(S(C)(=O)=O)cc1C(=O)N1CC2CC2(c2csc(C(F)(F)F)n2)C1)C(F)(F)F (single isomer, unassigned) [Example 27]
(II) C[C@@H](Oc1ccc(S(C)(=O)=O)cc1C(=O)N1CC2CC2(c2nc(C3(C(F)(F)F)CC3)no2)C1)C(F)(F)F (mixture of isomers)
(III) CC(C)Oc1ccc(S(C)(=O)=O)cc1C(=O)N1CC2CC2(c2noc(C3(C(F)(F)F)CC3)n2)C1 (single isomer, unassigned)
(IV) CCS(=O)(=O)c1ccc(O[C@@H](C)C(F)(F)F)c(C(=O)N2CC3CC3(c3cc(C(F)(F)F)on3)C2)c1 (single isomer, unassigned) [Example 104]
Task field, ranking: reported IC50, descending order. Order the labels as requested and list them.
IV, II, I, III
(IV: 292 nM, II: 11 nM, I: 5 nM, III: 3 nM)

(I) COC1(c2nc(C34CC3CN(C(=O)c3cc(S(C)(=O)=O)ccc3O[C@@H](C)C(F)(F)F)C4)no2)CC1 (single isomer, unassigned) [Example 117]
(II) Cc1nc(C23CC2CN(C(=O)c2cc(S(C)(=O)=O)ccc2O[C@@H](C)C(F)(F)F)C3)co1 (mixture of isomers)
Which gives the smaller IC50 number: I or II ? Returns: label corresponding to the selected item.
I

Origin of the recorded values: patent US9012489B2
